System: HCV replicon in Huh-5-2 cells
MEASUREMENT NOTES: Anti-HCV assay/replicon assay (luciferase)
Type: cell-based
MEASUREMENT CONDITIONS: Hepatitis C virus; Huh-5-2 replicon cells, 72 hours; read-out: EC50
MEASURE: EC50 (nM)

SMI: COc1ccc(-c2ccc3nc(N)nc(Nc4cccc(C)c4)c3n2)cc1OC
MEASURED: 500

---

Reported melting point values for a set of compounds

COMPOUND: CC(C)COc1nc(N)nc2ccc(-c3ccc(F)cc3)nc12
melting point: 196 °C
//
COMPOUND: Nc1nc(OCc2ccccc2)c2nc(-c3ccc(F)cc3)ccc2n1
melting point: 225 °C
//
COMPOUND: CCC(C)Oc1nc(NC(C)=O)nc2ccc(Cl)nc12 (stereo not drawn)
melting point: 143 to 144 °C
//
COMPOUND: CCOc1nc(N)nc2ccc(-c3ccc(F)cc3)nc12
melting point: 188 to 189 °C
//
COMPOUND: CCOc1nc(N)nc2ccc(-c3ccccc3F)nc12
melting point: 182 °C
//
COMPOUND: Nc1nc2ccc(Cl)nc2c(=O)[nH]1
melting point: > 330 °C
//
COMPOUND: CCCCOc1nc(N)nc2ccc(-c3ccccc3F)nc12
melting point: 147 to 148 °C
//
COMPOUND: CC(=O)Nc1nc2ccc(Cl)nc2c(=O)[nH]1
melting point: 317 to 319 °C
//
COMPOUND: CCCCCOc1nc(N)nc2ccc(-c3cccc(F)c3)nc12
melting point: 142 to 143 °C
//
COMPOUND: CCCCCOc1nc(N)nc2ccc(-c3ccccc3F)nc12
melting point: 136 to 137 °C
//
COMPOUND: CCCCOc1nc(N)nc2ccc(-c3cccc(F)c3)nc12
melting point: 160 to 161 °C
//
COMPOUND: CCC(C)Oc1nc(N)nc2ccc(-c3cccc(F)c3)nc12 (stereo not drawn)
melting point: 158 to 159 °C
//
COMPOUND: CCOc1nc(NC(C)=O)nc2ccc(Cl)nc12
melting point: 233 °C
//
COMPOUND: CCCCCOc1nc(NC(C)=O)nc2ccc(Cl)nc12
melting point: 174 °C
//
COMPOUND: Nc1nc(OCc2ccccc2)c2nc(-c3cccc(F)c3)ccc2n1
melting point: 199 to 200 °C
//
COMPOUND: CC(C)Oc1nc(N)nc2ccc(-c3ccc(F)cc3)nc12
melting point: 191 to 192 °C
//
COMPOUND: Nc1nc(OCc2ccccc2)c2nc(-c3ccccc3F)ccc2n1
melting point: 200 to 202 °C
//
COMPOUND: CC(=O)Nc1nc(OCC(C)C)c2nc(Cl)ccc2n1
melting point: 168 °C

---

Tested on: production of human TNF-α by PBMC in response to LPS
MEASUREMENT NOTES: TNF-α assay (LPS-stimulated PBMC, sandwich ELISA)
Format: cell-based
MEASUREMENT CONDITIONS: Homo sapiens, PBMC; LPS 1 μg/ml, 72 hours; read-out: TNF α
pIC50: −log10 of the molar value.

COMPOUND: CCOc1cc(-c2ccc3ncnc(N4CCN(C(=O)Nc5cccc(Cl)c5)CC4)c3n2)ccc1OC
TARGET DESC: production of human TNF-α by PBMC in response to LPS
pIC50: 7.22
--
COMPOUND: Nc1nc(N2CCOCC2)c2nc(-c3ccncc3)ccc2n1
TARGET DESC: production of human TNF-α by PBMC in response to LPS
pIC50: 6.30
--
COMPOUND: COc1ccc(-c2ccc3nc(N)nc(NC4CCCN(C(=O)Nc5cccc(C)c5)C4)c3n2)cc1OC (centres unmarked)
TARGET DESC: production of human TNF-α by PBMC in response to LPS
pIC50: 5.74
--
COMPOUND: Nc1nc(N2CCOCC2)c2nc(-c3cccnc3)ccc2n1
TARGET DESC: production of human TNF-α by PBMC in response to LPS
pIC50: 6.15
--
COMPOUND: COc1ccc(-c2ccc3nc(N)nc(NCCNC(=O)COc4ccc(Cl)cc4)c3n2)cc1OC
TARGET DESC: production of human TNF-α by PBMC in response to LPS
pIC50: 5.41
--
COMPOUND: COc1ccc(-c2ccc3nc(N)nc(N4CC[C@H](N)C4)c3n2)cc1OC
TARGET DESC: production of human TNF-α by PBMC in response to LPS
pIC50: 5.72
--
COMPOUND: Nc1nc(N2CCOCC2)c2nc(-c3ccccc3Br)ccc2n1
TARGET DESC: production of human TNF-α by PBMC in response to LPS
pIC50: 5.14
--
COMPOUND: Cc1csc(-c2ccc3nc(N)nc(N4CCOCC4)c3n2)c1
TARGET DESC: production of human TNF-α by PBMC in response to LPS
pIC50: 5.31
--
COMPOUND: COc1ccc(-c2ccc3nc(N)nc(NCCC(=O)N4CCN(C(C)=O)CC4)c3n2)cc1OC
TARGET DESC: production of human TNF-α by PBMC in response to LPS
pIC50: 6.15
--
COMPOUND: COc1ccc(-c2ccc3nc(N)nc(Nc4cccc(C)c4)c3n2)cc1OC
TARGET DESC: production of human TNF-α by PBMC in response to LPS
pIC50: 5.19
--
COMPOUND: COc1ccc(-c2ccc3ncnc(N4CCNCC4)c3n2)cc1C
TARGET DESC: production of human TNF-α by PBMC in response to LPS
pIC50: 5.09
--
COMPOUND: COc1ccc(-c2ccc3nc(N)nc(OCCOc4ccccc4)c3n2)cc1OC
TARGET DESC: production of human TNF-α by PBMC in response to LPS
pIC50: 6.15
--
COMPOUND: CCOc1ccc(-c2ccc3nc(N)nc(N4CCOCC4)c3n2)cc1F
TARGET DESC: production of human TNF-α by PBMC in response to LPS
pIC50: 6.10
--
COMPOUND: COc1ccc(-c2ccc3nc(N)nc(N4CCCN(C(=O)Nc5cccc(C)c5)CC4)c3n2)cc1OC
TARGET DESC: production of human TNF-α by PBMC in response to LPS
pIC50: 6.22
--
COMPOUND: COc1ccc(-c2ccc3ncnc(N4CCN(C(=O)Nc5cccc(Cl)c5)CC4)c3n2)cc1OC(C)C
TARGET DESC: production of human TNF-α by PBMC in response to LPS
pIC50: 6.52
--
COMPOUND: COc1ccc(-c2ccc3nc(N)nc(N4CCN(CC(=O)Nc5ccccn5)CC4)c3n2)cc1OC
TARGET DESC: production of human TNF-α by PBMC in response to LPS
pIC50: 7.10
--
COMPOUND: COc1ccc(-c2ccc3nc(N)nc(N4CC[C@H](NC(=O)COc5ccc(Cl)cc5)C4)c3n2)cc1OC
TARGET DESC: production of human TNF-α by PBMC in response to LPS
pIC50: 5.74
